Reference source: patent US9266891B2

# testedTarget: BRD4-BD1 (Homo sapiens (Human))
# methodNotes: BRD4-H4 tetraacetylated peptide inhibition AlphaScreen
# assayContext: GST-BRD4-BD1 (aa 44-168) with biotinylated Acetyl-Histone H4 (Lys5, 8, 12, 16) peptide
# Protocol: Biological Methods BRD4-H4 Tetraacetylated Peptide Inhibition AlphaScreen Compounds are diluted in serial dilution 1:5 in assay buffer from 10 mM stock in DMSO (100 μM start concentration) in white OptiPlate-384 (PerkinElmer). […] Afterwards, the signal is measured in a PerkinElmer Envision HTS Multilabel Reader using the AlphaScreen protocol from PerkinElmer. […]
IC50 values by entry
Respond with the bare value in nM.

# input Form field - read-out: IC50; system: BRD4-BD1 (Homo sapiens (Human)); submitted item: Cc1nnc2c(NC(C)C)nc(-c3nc4cnc(N5CCOC[C@H]5C)cc4n3Cc3ccccn3)cn12
# output 9

# input Form field - read-out: IC50; system: BRD4-BD1 (Homo sapiens (Human)); submitted item: CNc1nc(-c2nc3ccc(N4CCOCC4)cc3n2Cc2ccccn2)cn2c(C)nnc12
# output 3

# input Form field - read-out: IC50; system: BRD4-BD1 (Homo sapiens (Human)); submitted item: Cc1nnc2c(NC(C)C)nc(-c3nc4cnc(N5CCOCC5)cc4n3Cc3ccc(F)cn3)cn12
# output 1

# input Form field - read-out: IC50; system: BRD4-BD1 (Homo sapiens (Human)); submitted item: Cc1nnc2c(NC(C)C)nc(-c3nc4cnc(N(C)C)cc4n3Cc3ccccn3)cn12
# output 13

# input Form field - read-out: IC50; system: BRD4-BD1 (Homo sapiens (Human)); submitted item: Cc1nnc2c(NC(C)C)nc(-c3nc4ccc(C5CCOCC5)cc4n3Cc3ccccn3)cn12
# output 32

# input Form field - read-out: IC50; system: BRD4-BD1 (Homo sapiens (Human)); submitted item: CNc1nc(-c2nc3ccccc3n2Cc2ccccc2)cn2c(C)nnc12
# output 22

###

# testedTarget: BRD4-BD1 (Homo sapiens (Human))
# methodNotes: BRD4-H4 tetraacetylated peptide inhibition AlphaScreen
# assayContext: GST-BRD4-BD1 (aa 44-168) with biotinylated Acetyl-Histone H4 (Lys5, 8, 12, 16) peptide
measuredEndpoint: pIC50
Please keep in mind that pIC50 is minus log10 of the molar concentration; only the number is needed.

Known results for molecules:
                                inputsmiles  observedmeasurement
0  CNc1nc(-c2cnn(C)c2Oc2ccccc2)cn2c(C)nnc12                 7.39
1  Cc1nnc2c(N[C@@H]3CCOC3)nc(-c3nc4cnc(N5CCOCC5)cc4n3Cc3cccnc3)cn12                 7.89
2  Cc1nnc2c(NC(C)C)nc(-c3nc4ccc(N5CCOCC5)cc4n3Cc3ccccn3)cn12                 8.30
3  CNc1nc(-c2nc3cnc(N4CCN(C)CC4)cc3n2Cc2cccnc2)cn2c(C)nnc12                 7.92

# input For Cc1nnc2c(NC(C)C)nc(-c3nc4cnc(C(C)C)cc4n3[C@@H](C)c3ccccn3)cn12 , what is its reported pIC50?
# output 7.18

###

# testedTarget: BRD4-BD1 (Homo sapiens (Human), UniProt O60885)
# methodNotes: BRD4-H4 tetraacetylated peptide inhibition AlphaScreen
# assayContext: GST-BRD4-BD1 (aa 44-168) with biotinylated Acetyl-Histone H4 (Lys5, 8, 12, 16) peptide
IC50 values by entry
Respond with the bare value in nM.

Known results for molecules:
In [3]: df
Out[3]:
                                   molecule                              testedtarget  observedmeasurement
0  CNc1nc(-c2nn(C)c(C)c2Cc2ccccc2)cn2c(C)nnc12  BRD4-BD1 (Homo sapiens (Human), UniProt O60885)                   18
1  CCNc1nc(-c2nc3cnc(N4CCN(C)CC4)cc3n2Cc2ccccc2)cn2c(C)nnc12  BRD4-BD1 (Homo sapiens (Human), UniProt O60885)                   17
2  Cc1cc2c(cn1)nc(-c1cn3c(C)nnc3c(N[C@@H]3CCOC3)n1)n2Cc1cccnc1  BRD4-BD1 (Homo sapiens (Human), UniProt O60885)                   31
3  CNc1nc(-c2nc3ccc(N4CCN(C)CC4)cc3n2Cc2cccnc2)cn2c(C)nnc12  BRD4-BD1 (Homo sapiens (Human), UniProt O60885)                    8
4  CNc1nc(-c2nc3cnc(N4CCN(C)CC4)cc3n2Cc2ccccc2)cn2c(C)nnc12  BRD4-BD1 (Homo sapiens (Human), UniProt O60885)                    9

# input For Cc1nnc2c(NC(C)C)nc(-c3nc4ccc(C(C)C)cc4n3[C@@H](C)c3ccccn3)cn12 , what is its reported IC50?
# output 243

# input For Cc1nnc2c(NC(C)C)nc(-c3nc4cnc(N5CCOC[C@@H]5C)cc4n3Cc3ccccn3)cn12 , what is its reported IC50?
# output 9

###

pIC50 values by entry
# testedTarget: BRD4-BD1 (Homo sapiens (Human), UniProt O60885)
# methodNotes: BRD4-H4 tetraacetylated peptide inhibition AlphaScreen
# assayContext: GST-BRD4-BD1 (aa 44-168) with biotinylated Acetyl-Histone H4 (Lys5, 8, 12, 16) peptide
Please keep in mind that pIC50 is minus log10 of the molar concentration; only the number is needed.

Known results for molecules:
>>> df
                                   molecule  observedmeasurement
0  COc1cc2c(cn1)nc(-c1cn3c(C)nnc3c(NC(C)C)n1)n2Cc1ccccn1                 6.90
1  CNc1nc(-c2nc3ccc(N4CCN(C)CC4)cc3n2Cc2ccccn2)cn2c(C)nnc12                 8.10
2  CNc1nc(-c2nc(-c3ccccc3)c(C)n2Cc2ccccc2)cn2c(C)nnc12                 8.40
3  Cc1nnc2c(NC(C)C)nc(-c3nc4cnc(N5CCOCC5)cc4n3Cc3ccccn3)cn12                 8.00
4  COCCN1CCC(Nc2nc(-c3nc4ccccc4n3Cc3ccccc3)cn3c(C)nnc23)CC1                 8.10

# input For CNc1nc(-c2nc3cnc(N4CCN(C)CC4)cc3n2Cc2ccccn2)cn2c(C)nnc12 , what is its reported pIC50?
# output 7.89

# input For CNc1nc(-c2nc3ccc(N4CCN(C)CC4)cc3n2Cc2ccccc2)cn2c(C)nnc12 , what is its reported pIC50?
# output 8.05

# input For Cc1nnc2c(NC(C)C)nc(-c3nc4cnc(N5CCOC[C@@H]5C)cc4n3[C@@H](C)c3ccccc3)cn12 , what is its reported pIC50?
# output 7.42

# input For Cc1nnc2c(NC(C)C)nc(-c3nc4cnc(C5CCOCC5)cc4n3Cc3ccccn3)cn12 , what is its reported pIC50?
# output 7.47

# input For Cc1nnc2c(NC3CCN(C)CC3)nc(-c3nc4ccccc4n3Cc3ccccc3)cn12 , what is its reported pIC50?
# output 8.15

# input For Cc1nnc2c(NC(C)C)nc(-c3nc4ccc(N(C)C)cc4n3Cc3ccccn3)cn12 , what is its reported pIC50?
# output 8.15

# input For Cc1nnc2c(NC(C)C)nc(-c3nc4ccc(C5CCOCC5)cc4n3[C@@H](C)c3ccccn3)cn12 , what is its reported pIC50?
# output 7.16

# input For CNc1nc(-c2nc3cc(C4=NNC(=O)CC4C)ccc3n2Cc2ccccc2)cn2c(C)nnc12 (stereo not shown) , what is its reported pIC50?
# output 8.30

# input For COc1ccc2nc(-c3cn4c(C)nnc4c(NC(C)C)n3)n(Cc3ccccn3)c2c1 , what is its reported pIC50?
# output 7.35

# input For COCCN1CCC(Nc2nc(-c3nc4cc(C5=NNC(=O)CC5C)ccc4n3Cc3ccccc3)cn3c(C)nnc23)CC1 (stereo not shown) , what is its reported pIC50?
# output 8.52

# input For CNc1nc(-c2nc3ccc(N4CCOCC4)cc3n2Cc2ccccc2)cn2c(C)nnc12 , what is its reported pIC50?
# output 8.00

###

# testedTarget: BRD4-BD1 (Homo sapiens (Human))
# methodNotes: BRD4-H4 tetraacetylated peptide inhibition AlphaScreen
# assayContext: GST-BRD4-BD1 (aa 44-168) with biotinylated Acetyl-Histone H4 (Lys5, 8, 12, 16) peptide
measuredEndpoint: pIC50
Please keep in mind that pIC50 is minus log10 of the molar concentration; only the number is needed.

>>> print(df.to_string())
                                   molecule                     testedtarget  measuredendpoint  observedmeasurement
0  CNc1nc(-c2nc3cccnc3n2Cc2ccccc2)cn2c(C)nnc12 [III-10]  BRD4-BD1 (Homo sapiens (Human))             pIC50                 7.74

# input Form field - read-out: pIC50; system: BRD4-BD1 (Homo sapiens (Human)); submitted item: COCCN1CCC(Nc2nc(-c3nc4ccccc4n3Cc3ccc(F)cc3)cn3c(C)nnc23)CC1 [III-5]
# output 8.05

# input Form field - read-out: pIC50; system: BRD4-BD1 (Homo sapiens (Human)); submitted item: CNc1nc(-c2nc3cnc(N4CCOCC4)cc3n2Cc2ccccn2)cn2c(C)nnc12 [III-22]
# output 8.52
